These measurements were taken from patent US20110294843A1.

experiment: Pharmacokinetics of M6G at single and multiple intravenous doses in healthy volunteers; type: in vivo, human; details: both sexes, human, plasma, iv, 15 mg/70 kg, single 5 min iv infusion 15 mg; Mean; read-out: t½ (converted)

[
  {
    "MOLECULE": "CN1CC[C@]23c4c5ccc(O)c4O[C@H]2[C@@H](OC2OC(C(=O)O)C(O)C(O)C2O)C=CC3[C@H]1C5 (stereo partly shown) [M6G]",
    "half-life [h]": 1.48
  }
]

* * *

assay: Pharmacokinetics of M6G at single and multiple intravenous doses in healthy volunteers; assay type: in vivo, human; settings: both sexes, human, plasma, iv, 30 mg/70 kg, single 5 min iv infusion 30 mg; Mean
PROPERTY_LABEL: clearance (mL/min)

[
  {
    "COMPOUND": "CN1CC[C@]23c4c5ccc(O)c4O[C@H]2[C@@H](OC2OC(C(=O)O)C(O)C(O)C2O)C=CC3[C@H]1C5 (stereo partly shown)",
    "PROPERTY_LABEL": "clearance",
    "ENDPOINT_UNIT": "mL/min",
    "READING": 122
  }
]
